# test-target: AgrR-His6 (Cupriavidus metallidurans NA4) (UniProt Q1LMJ6)
# Sequence: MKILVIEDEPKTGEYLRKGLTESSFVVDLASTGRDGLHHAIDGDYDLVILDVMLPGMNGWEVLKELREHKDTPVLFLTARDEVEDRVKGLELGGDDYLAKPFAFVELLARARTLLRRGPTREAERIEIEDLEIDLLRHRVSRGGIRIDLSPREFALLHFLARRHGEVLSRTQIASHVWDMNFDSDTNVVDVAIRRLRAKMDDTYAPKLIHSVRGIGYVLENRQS
# test: EMSA
# run-conditions: 25 mM Na2HPO4, 150 mM NaCl, 0.1 mM EDTA, 2 mM MgCl2, 1 mM DTT, 10% glycerol, pH 7.0, 22 C, about 0.1 nM probe, 25 ug/ml sonicated salmon sperm DNA
Form field: pKd (one value per entry).
Units for pKd: none; it is -log10 of a concentration expressed in mol/L.

Some sequences with recorded pKd:
{"ordered-residues": "GTTTTCATCCTCAGCTGCACGGGCTCACAGCTCAAACGATGCCGCCGATGATAACGGCGCAGGTTCGCCTATTGGATGACAAGACTGTAATCGTTTCGTCCCCGTTTGAAAGGGTGTTGCGTACATAGAATCGCCGCTAATTCTGGATGACCGGCGCCGACAGCGCCTGGAGTGAACCATGTGGATTGTGC (double strand) [agrR control region]", "pKd": 4.78}
{"ordered-residues": "TAGAACTGCCTGTGTTGAGCAGTTGCAGCATTGTACTGCCTCTAACGGTTGCAAAATGGCTATATCAAGATGACATTCGTGCAATGTTCGCCAATTCGTGGCAAAGCTCCGCTAGTGTCTCGGTCTATATCCAGAACCTCGAATAATGGGCCGGTACCAA (double strand) [czcL-czcR2 intergenic region]", "pKd": 4.58}
{"ordered-residues": "GTGTCCTCGTCAAACCAATGCACCCGGGCCCCGTGCCCGGAAAACGCCGCAAGTGTACGCCGCGGTCCGAACATGACGCGGACATTACCGGAATGTAATTTTTGGGTCATTAGGTGGTTACCGCGCCCTGACTACTCTGTGCTCGCTGCGCCATTTTGCTGGCGCGATTTCACAATGAGAA (double strand) [copA2-copR2 intergenic region]", "pKd": 5.68}

Now consider a different sequence.
Quick one: pKd for ATGGGTTACGGGTTGTTCACGGCTTGCTGGAGAGTCTGATCGGTCGTTGCGCGACCTTGGAATGCAGTCTAGAGGGCGGGTCCCGACGCGAACATGACCCTTGAATGACATTGATGTCATTTGTCCGAGGCAATGCGATACGATTGCCGGACAGGGTGCCGACCGGACAATGAATTCGGCCTTGGCGACAAATCCACGCCAAACAAC (double strand) [prsQ2 promoter/operator] ?
5.80

Entry source: paper PMC7380067
